IC50 listing for selected molecules.
# test.target: Autotaxin (Homo sapiens, UniProt Q13822)
# experiment: Inhibition of C-terminal FLAG tagged human recombinant ATX expressed in insect sf9 cells using FS-3 as substrate measured every 2 mins for 60 mins by FRET assay
Give your result in µM as a bare value.

>  <molecule>
O=C(O)c1ccccc1N1CCN(C(=O)COc2ccc(C(F)(F)F)cc2)CC1

>  <IC50 / µM>
1.8

$$$$
>  <molecule>
O=C(COc1cc(Cl)cc(Cl)c1)N1CCN(c2cccc([N+](=O)[O-])c2)CC1

>  <IC50 / µM>
0.67

$$$$
>  <molecule>
O=C(COc1ccc(Cl)cc1)N1CCN(c2ccccc2[N+](=O)[O-])CC1

>  <IC50 / µM>
8.2

$$$$

Prompt line: Look up IC50 for this molecule: `O=C(O)c1ccc(N2CCN(C(=O)COc3ccc(Cl)cc3)CC2)cc1`
Response line: 4.1

Prompt line: Look up IC50 for this molecule: CCCCCCCCCCCCCC(=O)NC(CCC(=O)O)C(=O)O (stereo not given)
Response line: 6

* * *

IC50 listing for selected compounds.
# test.target: Autotaxin (Homo sapiens)
# experiment: Inhibition of C-terminal FLAG tagged human recombinant ATX expressed in insect sf9 cells using pNP-TMP as substrate measured every 2 mins for 60 mins by absorbance
Give your result in µM as a bare value.

>  <molecular.string>
O=C(COc1cc(Cl)cc(Cl)c1)N1CCN(c2cccc([N+](=O)[O-])c2)CC1

>  <IC50 (µM)>
8.9

$$$$

From here, focus on the item given below.
Prompt line: Look up IC50 for this compound: `O=C(O)c1cccc(N2CCN(C(=O)COc3ccc(Cl)cc3)CC2)c1`
Response line: 6.2

* * *

# test.target: Ectonucleotide pyrophosphatase/phosphodiesterase family member 7 (Homo sapiens) (UniProt Q6UWV6)
# Sequence (Q6UWV6 whole entry): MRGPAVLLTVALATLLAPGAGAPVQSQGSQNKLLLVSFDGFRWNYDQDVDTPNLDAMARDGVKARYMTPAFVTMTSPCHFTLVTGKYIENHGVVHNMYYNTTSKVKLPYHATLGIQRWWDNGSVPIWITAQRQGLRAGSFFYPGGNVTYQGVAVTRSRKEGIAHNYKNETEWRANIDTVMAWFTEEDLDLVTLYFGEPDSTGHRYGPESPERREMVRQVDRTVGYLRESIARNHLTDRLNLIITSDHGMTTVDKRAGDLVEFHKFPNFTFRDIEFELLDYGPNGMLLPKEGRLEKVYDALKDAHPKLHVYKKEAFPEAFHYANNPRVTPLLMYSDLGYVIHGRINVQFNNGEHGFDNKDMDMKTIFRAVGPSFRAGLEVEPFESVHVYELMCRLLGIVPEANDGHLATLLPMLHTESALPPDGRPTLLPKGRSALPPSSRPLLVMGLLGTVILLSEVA
# experiment: Inhibition of C-terminal FLAG tagged human recombinant NPP7 expressed in insect sf9 cells assessed as remaining enzyme activity response at 10 uM using pNPPC as substrate measured every 2 mins for 1 hr by […]
Activity listing for selected compounds.
Give your result in % as a bare value.

For orientation, consider the following solved cases.
>  <molecular.string>
O=C(COc1cc(Cl)cc(Cl)c1)N1CCN(c2ccc([N+](=O)[O-])cc2)CC1

>  <Activity [%]>
93.1

$$$$
>  <molecular.string>
O=C(O)c1ccccc1N1CCN(C(=O)COc2cc(Cl)cc(Cl)c2)CC1

>  <Activity [%]>
90.2

$$$$

From here, focus on the item given below.
Prompt line: Look up Activity for this compound: `O=C(COc1ccc(Cl)cc1Cl)N1CCN(c2ccc([N+](=O)[O-])cc2)CC1`
Response line: 103

* * *

inhibition listing for selected compounds.
# test.target: Autotaxin (Homo sapiens, UniProt Q13822)
# experiment: Inhibition of C-terminal FLAG tagged human recombinant ATX expressed in insect sf9 cells at 10 uM using FS-3 as substrate measured every 2 mins for 60 mins by FRET assay
Give your result in % as a bare value.

For orientation, consider the following solved cases.
>  <compound>
Cc1c(Cl)c(-c2nnc(NCC(C)C)s2)nn1C

>  <inhibition (%)>
7.92

$$$$
>  <compound>
O=C(COc1cc(Cl)cc(Cl)c1)N1CCN(c2ccccc2[N+](=O)[O-])CC1

>  <inhibition (%)>
77.7

$$$$
>  <compound>
O=C(COc1ccc(Cl)cc1Cl)N1CCN(c2ccccc2[N+](=O)[O-])CC1

>  <inhibition (%)>
69.8

$$$$

From here, focus on the item given below.
Prompt line: Look up inhibition for this compound: O=C(Nc1ccccc1)N1CC(O)C(N2CCN(Cc3ccccc3)CC2)C1 (stereo not given)
Response line: 2.55
